Where do these numbers come from? They come from patent US20240270821A1.

- Tested Target: T1, human GIP receptor (human) (UniProt P48546)
- T1 sequence (looked up): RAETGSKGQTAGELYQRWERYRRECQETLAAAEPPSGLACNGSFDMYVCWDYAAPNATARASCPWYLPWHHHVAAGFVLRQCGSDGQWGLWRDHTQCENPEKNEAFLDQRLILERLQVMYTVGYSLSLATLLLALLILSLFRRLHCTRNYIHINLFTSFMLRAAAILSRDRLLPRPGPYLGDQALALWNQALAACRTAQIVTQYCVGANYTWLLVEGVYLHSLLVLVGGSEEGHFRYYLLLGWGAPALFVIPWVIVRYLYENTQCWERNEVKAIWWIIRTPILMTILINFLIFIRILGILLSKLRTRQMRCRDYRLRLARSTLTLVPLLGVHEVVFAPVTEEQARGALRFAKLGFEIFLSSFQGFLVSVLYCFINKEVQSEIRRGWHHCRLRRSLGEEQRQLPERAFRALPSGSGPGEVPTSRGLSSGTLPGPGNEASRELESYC
- Test: cell-based or functional assay
In this section we review reported log10(cAMP Rel EC50, nM (1% HSA)) values for a set of binders.
Please be aware that the numbers have been log10-transformed from cAMP Rel EC50, nM (1% HSA) in nM.

Answered examples (8):
YXQGTFTSDFSXXLDKKAQXAFIEYLLEGGPSSGXPPPGGS (not fully specified; synthetic construct; SITE 2: note = 2-Aminoisobutyric Acid; SITE 12: note = L-ornithine; SITE 13: note = alpha-methyl-leucine; SITE 17: note = Lysine is chemically modified through conjugation of the epsilon-amino group of the Lysine side chain with (gamma-Glu)2-CO-(CH2)16-CO2H; SITE 20: note = 2-Am) [Example 771] = 1.65
YXQGTXTSDXXIXLDXKAQXXFIEXLIEGGPSSGAPEPSEG (synthetic construct; SITE 2: note = 2-Aminoisobutyric Acid; SITE 6: note = alpha-methyl-2-fluoro-L-phenylalanine; SITE 10: note = 3-(4-Pyridyl)-L-alanine; SITE 11: note = alpha-methyl-L-serine; SITE 13: note = alpha-methyl-leucine; SITE 16: note = L-ornithine; SITE 17: note = Lysine is chemically mo) [Example 429] = 0.28
YXQGTFTSDFSXXLDKKAQXAFIEYLLEGGESSGAPPPGGS (synthetic construct; SITE 2: note = 2-Aminoisobutyric Acid; SITE 12: note = L-ornithine; SITE 13: note = alpha-methyl-leucine; SITE 17: note = Lysine is chemically modified through conjugation of the epsilon-amino group of the Lysine side chain with (2-[2-(2-Amino-ethoxy)-ethoxy]-acetyl)-(gamma-Glu)) [Example 161] = 1.94
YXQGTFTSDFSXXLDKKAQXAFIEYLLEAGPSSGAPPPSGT (not fully specified; acylated; synthetic construct; SITE 2: note = 2-Aminoisobutyric Acid; SITE 12: note = L-ornithine; SITE 13: note = alpha-methyl-leucine; SITE 17: note = Lysine is chemically modified through conjugation of the epsilon-amino group of the Lysine side chain with (gamma-Glu)2-CO-(CH2)16-CO2H; SITE 20: note = 2-Am) [Example 204] = 1.22
YXQGTXTSDXSILLDKKAQXAFIEYLLEGGPSSGAPPPS (synthetic construct; SITE 2: note = 2-Aminoisobutyric Acid; SITE 6: note = alpha-methyl-L-phenylalanine; SITE 10: note = 3-(4-Pyridyl)-L-alanine; SITE 17: note = Lysine is chemically modified through conjugation of the epsilon-amino group of the Lysine side chain with (2-[2-(2-Amino-ethoxy)-ethoxy]-) [Example 418] = 0.78
YXQGTFTSDXSQXLDKKAQXAFIEYLIAGGPSSGAPPPEGS (non-natural residues, C18 diacid acylation; synthetic construct; SITE 2: note = 2-Aminoisobutyric Acid; SITE 10: note = 3-(4-Pyridyl)-L-alanine; SITE 13: note = alpha-methyl-leucine; SITE 17: note = Lysine is chemically modified through conjugation of the epsilon-amino group of the Lysine side chain with (gamma-Glu)2-CO-(CH2)16-CO2H; SITE 20:) [Example 969] = 1.10
YXQGTFTSDXSQXLDXKAQXAFIEYLIEAGPSSGAPPPSGS (not fully specified; Aib, 4Pal, αMeL, Orn, Me4Pal, D-Ala; acylated Lys; amide; synthetic construct; SITE 2: note = 2-Aminoisobutyric Acid; SITE 10: note = 3-(4-Pyridyl)-L-alanine; SITE 13: note = alpha-methyl-leucine; SITE 16: note = L-ornithine; SITE 17: note = Lysine is chemically modified through conjugation of the epsilon-amino group of the Lysine side chain with (gamma-Gl)) [Example 1017] = 1.45
YXQGTFTSDFSXXLDKKAQXAFIEYLLEGGPSSGAPPPGGQ (synthetic construct; SITE 2: note = 2-Aminoisobutyric Acid; SITE 12: note = L-ornithine; SITE 13: note = alpha-methyl-leucine; SITE 17: note = Lysine is chemically modified through conjugation of the epsilon-amino group of the Lysine side chain with (2-[2-(2-Amino-ethoxy)-ethoxy]-acetyl)-(gamma-Glu)) [Example 159] = 1.70

Reported log10(cAMP Rel EC50, nM (1% HSA)), binder YXQGTXTSDYSSLLDKKAQXAFIEYLEEGGPSSGAPPPS (synthetic construct; SITE 2: note = 2-Aminoisobutyric Acid; SITE 6: note = alpha-methyl-2-fluoro-L-phenylalanine; SITE 17: note = Lysine is chemically modified through conjugation of the epsilon-amino group of the Lysine side chain with (2-[2-(2-Amino-ethoxy)-ethoxy]-acetyl)-(gamma-Glu)-CO-(CH2) 16-) [Example 409] : ____ 1.82

// repeat for YXQGTXTSDYSIXLDXKAQXAFIEYLLEGGPSSGAPPPSEG (synthetic construct; SITE 2: note = 2-Aminoisobutyric Acid; SITE 6: note = alpha-methyl-2-fluoro-L-phenylalanine; SITE 13: note = alpha-methyl-leucine; SITE 16: note = L-ornithine; SITE 17: note = Lysine is chemically modified through conjugation of the epsilon-amino group of the Lysine side chain w) [Example 404] and report 0.31

// repeat for YXQGTFTSDFSQXLDKKAQXAFIEYLLAGGPSSGEPPPSGS (synthetic construct; SITE 2: note = 2-Aminoisobutyric Acid; SITE 13: note = alpha-methyl-leucine; SITE 17: note = Lysine is chemically modified through conjugation of the epsilon-amino group of the Lysine side chain with (2-[2-(2-Amino-ethoxy)-ethoxy]-acetyl)-(gamma-Glu)-CO-(CH2) 16-CO2H; SITE 20: n) [Example 773] and report 1.42

// repeat for YXQGTXTSDYXIXLDXKAQXXFIEXLLEGGPSSGEPPPS (synthetic construct; SITE 2: note = 2-Aminoisobutyric Acid; SITE 6: note = alpha-methyl-2-fluoro-L-phenylalanine; SITE 11: note = alpha-methyl-L-serine; SITE 13: note = alpha-methyl-leucine; SITE 16: note = L-ornithine; SITE 17: note = Lysine is chemically modified through conjugation of the epsilon) [Example 368] and report 0.42

// repeat for YXQGTFTSDFSXXLDKKAQXAFIEYLLEAGPSSGEPPPSGS (synthetic construct; SITE 2: note = 2-Aminoisobutyric Acid; SITE 12: note = L-ornithine; SITE 13: note = alpha-methyl-leucine; SITE 17: note = Lysine is chemically modified through conjugation of the epsilon-amino group of the Lysine side chain with (2-[2-(2-Amino-ethoxy)-ethoxy]-acetyl)2-(gamma-Glu)) [Example 155] and report 1.28
